Data origin, for the record: the nanobody polyreactivity screen of Harvey et al. (2022)

Assay: yeast display, Sf9 membrane polyspecificity reagent, FACS + sequencing; frameworks hold sequencing errors
quantity name: polyreactivity (PSR sort gate)

Consider the worked cases shown below.
## Task Would you kindly share the measured polyreactivity (PSR sort gate) for QVQLVESGGGLVQAGGSLRLSCAASGLTFPSYAMGWYRQAPGKVSELVAAISARGGGTYYADSVKGRFTISRDNAKNTVYLQMNSLKPEDTAVYYCAADPVYAGPGYDYWGQGTQVTVSS ?
## Result high polyreactivity

## Task I'd like to know its polyreactivity (PSR sort gate). The sequence in question is QVQLVVSGGGLVQAGGSLRLSCAASGGTFGGYAMGWYRQAPGKERELVAVITQRGGSTSYADSVKGRFTISRDNAKNTVYLQLNSQKREDTAVYYCNASAWLVVARTRYGYWGQGTQVTVSS
## Result low polyreactivity

## Task Quick one: polyreactivity (PSR sort gate) of QVQLVESGGGLVQAGGSLRLSCAASGRIFGTYAMGWYRQAPGKERELVDAISSSGTSTYYADSVKGRFTISRDNAKTTVYLQMNSLPPEDTAVYYCAVEAIDYAYAYYFRLGYDYWGQGTQVTVSS ?
## Result low polyreactivity

## Task # get_value(readout='polyreactivity (PSR sort gate)', item= QVQLVESGGGLVQAGGSLRLSCAASGSTFYPYAMGWYRQAPGKEWEFVADITKRGGSTYYADSVKGRFTISRDNAKNTVYLQMNSLKPEDTAVYYCNAYNYDLVYPQYDYWGQGTQVTVSS )
## Result low polyreactivity

## Task Look up polyreactivity (PSR sort gate): QVQLVESGGGLVQAGGSLRLSCAASGITILRYAMGWYRQAPGKERELVARITRSGGSTYYADSVKGRFTISRDNAKNTVYLQMNSLKPEDTAVYYCNDVRSAGDGDYWGQGTQVTVSS
## Result high polyreactivity

## Task Need polyreactivity (PSR sort gate), item QVQLVESGGGLVQAGGSLRLSCAASGRTIDPNAMGWYRQAPGKERELVAAISRTGVRTYYADSVMGRFTISRDNAKNTVYLQMNSLKPEDTAVYYCNRYGARSNDYWGQGTQVPVSS
## Result low polyreactivity

Go through the items and report each one's polyreactivity (PSR sort gate).
1. QVHLVESGGGLVQAGGSLRLSCAASGSTFRLYAMRWNRQAPGKERELVASITFSDSNTSYADSVKGRFTISRDNAKNTVYLQMNSLKPEDTAVYYCAKETSYENVVYTFDYDYWGQGTQVTVSS
2. QVQLVESGGVLVQAGGSLRLSCAASGRIFRYYAMGWYRQAPGKERELVAAIRYRSGGTYYADSVKGRFTISRDNAKNTVYLQMNSLKTEDTAVYYCNADKRLRGHGYDYWGEGTQVTVSS
3. QVQLVESGGGLVQEGGSLRLSCAASGSIFRYYAMGWYRQAPGKERELVAVITRGGSTYYADSVKGRFTISRDNAKNTVYLQMNSLKPEDTAVYYCAAEDYVIGDSGYDYWGQGTQVTVSS
4. QVQLVESGGGLVQAGGSLRLSCAASGSILFRYGMGWYRQAPGKERELVAAINSGGSTYADSVKGRFTISRDNAKNTVYLQMNSLKPEDTAVYYCAKVAWQAHGGPGEFDYWGQGTQVTVSS

## Result
["low polyreactivity", "high polyreactivity", "low polyreactivity", "low polyreactivity"]

###

Experiment: yeast display, Sf9 membrane polyspecificity reagent, FACS + sequencing; frameworks hold sequencing errors
quantity name: polyreactivity (PSR sort gate)

Worked cases, answers included:
## Task Looking for the measured polyreactivity (PSR sort gate) of QVQLVESGGGLVQAGGSLRLSCAASGFTFQRYAMGWYRQAPGKERELVAGITRRSGSTFYADSVKGRFTISRDNAKNNVYLLMNSLKPEDTAVYYCAATVPGLHWIYDFWGQGTQVTVSS , can you help?
## Result high polyreactivity

## Task Need polyreactivity (PSR sort gate), item QVQLVESGGGLVQAGGSLRLSCAASGRTFYYYAMGWSRQAPGKERELVAAINRGGSTNYADSVKGRFTISRDNAKNTVYLQMNSQKPEATAVYDCNAAYYGPVRSKYVYWGQGTQVTVSS
## Result high polyreactivity

## Task What value of polyreactivity (PSR sort gate) has been recorded for this entry: QVQLVESGGGLVQAGGSLRLSCAASGRTVRVYAMGWYRQAPGKERELVAAINGGGSTNYADSVKGRFTISRDSAKNTVYLQMNSLKPEDTAVYYCNATGRRSKRIYDYWGQGTQVTVSS
## Result high polyreactivity

## Task Given the entry QVQLVESGGGLVQAGGSLRLSCAASGFILKYYAMGWYRQAPGKERELVAAISVRGGSTYYADSVKGRFTISRDNAKNTVYLQMNSLKPEDTAVYYCAARHRYGGAFVDYDYWGQGTQVTVSS , report its measured polyreactivity (PSR sort gate).
## Result high polyreactivity

## Task Return reported polyreactivity (PSR sort gate); argument: QVQLVESGGGLVQAGGSLRLSCAPSGNTFGRNAMGWYRQAPGKERELVAAISFSGSRTYYADSVKGRFTISRDNAKNTVYLQMSSLKPEDTAVYYCNKRGADWTGFFYYEYDYWGQGTQVTVSS
## Result low polyreactivity

// each listed sequence needs a value for polyreactivity (PSR sort gate)
1. QVQLVESGGGLVQAGGSLRLTCAASGFIFSKNAMGWYRQPPGKERELVAAIDTSGSSTYYAYSVKGRFTISRDNAKNSVYLQMISLKPEDTAVYYCNRDDYFFSRFDYWGQGTQVTVTS
2. QVQLVESGGGLVQAGGSLRLSCAASGSIFGVNAMGWYRQAPGKERELVAAISSGGSTNYADSVKGRFTISRDNAKNTVYLQMNSLKPEDTAVYYCAADTNTRSNYDYWGQGTQVTVSS
3. QVQLVESGGGLVQAGGSLRLSCAASGFTFRRYTMGWYRQAPGKERELVAAISGRGGRTYYADSVKGRFTISRDNSKNTVYLQMNSLNPEDTAVYYCAADTQYWQSSKYDYWGQGTQVTVSS

## Result
1. low polyreactivity
2. low polyreactivity
3. high polyreactivity

// input: 2 sequences below; output: polyreactivity (PSR sort gate) for each
1. QVQLVESGGGLVQAGGSLRLSCAASGFTFAKNAMGWYRPAPGKERELVATISRSGGSTYYADSVKGRFTISRDNAKNTVYLQMNSLKPEDTAVYDCAADRSYGVLGNEGGYWGQGTQVTVSS
2. QVQLVESGGGLVQAGGSLRLSCAASGGIFVSYAMGWSRQAPGKERELVARINTVDGTNYADSVKGRFTISRDNAKNTVYLQMNSLKPEDTAVYYCAVRSPVLASDYGYYFLRDYWGQGTQVTVSS

## Result
1: high polyreactivity; 2: low polyreactivity

## Task Given the sequence QVQLVESGGGLVQAGGSLRLSCAPSGRIFTRYAMGWYRQAPGKERELVAASSSSGGSTYYADSVKGRFTISRDNAKNTVYLQMTSLKPEDTAVYYCNRGGWYAYYWGQGTQVTVSS , what is its reported polyreactivity (PSR sort gate)?
## Result high polyreactivity
